biological target: Progesterone receptor (Homo sapiens); experiment: qHTS assay to identify small molecule agonists of the progesterone receptor (PR) signaling pathway (AID 1346784); details: PR-UAS-bla HEK293T, beta-lactamase FRET ratio, 16 h; series mostly up to 92.4 µM; note: nearly all actives have a fitted effect of over 30% in size
Records with an inconclusive call do not appear. The source made the active and inactive calls. Calls come from the whole dose curve.
Classes used: active, inactive

INSERT INTO measurements (compound, target_under_test, category_label) VALUES
  ('CCOCCOCCO', 'Progesterone receptor (Homo sapiens)', 'inactive'),
  ('O=c1oc(=O)c2cc3c(=O)oc(=O)c3cc12', 'Progesterone receptor (Homo sapiens)', 'inactive'),
  ('O=C(COc1ccc(Cl)cc1)N1CCN(Cc2ccc3c(c2)OCO3)CC1', 'Progesterone receptor (Homo sapiens)', 'inactive'),
  ('C#C[C@]1(O)CC[C@H]2[C@@H]3CCc4cc(OC)ccc4[C@H]3CC[C@@]21C', 'Progesterone receptor (Homo sapiens)', 'active'),
  ('O=S(=O)(O)c1ccc(O)cc1', 'Progesterone receptor (Homo sapiens)', 'inactive'),
  ('COC(=O)c1ccccc1', 'Progesterone receptor (Homo sapiens)', 'inactive'),
  ('Cc1ccc2c(n1)Oc1ccc(C(C)C(=O)OCC(=O)N(C)C)cc1C2 (stereo not drawn)', 'Progesterone receptor (Homo sapiens)', 'inactive'),
  ('CN(C)CCN(Cc1cccs1)c1ccccn1', 'Progesterone receptor (Homo sapiens)', 'inactive');

Reference source for all entries: PubChem BioAssay (Tox21)
